Origin of values: patent US3980794A

# Tested on: Propionibacterium acnes 79
# ASSAY_NOTES: Susceptibility of anaerobic bacteria, agar dilution
# Assay type: cell-based
# CONDITION_DESCRIPTION: Cutibacterium acnes, 24 h; Propionibacterium acnes 79; read-out: 24 Hr. Minimum Inhibitory Concentration
READOUT_LABEL: MIC (µg/mL)
Give just the number in µg/mL; leave the unit off.

Summary for this compound, `CN(C)S(=O)(=O)Nc1c(C#N)c(-c2ncc([N+](=O)[O-])n2C)nn1C` : MIC is 1

Summary for this compound, CCCCC(CC)COC=Nc1c(C#N)c(-c2ncc([N+](=O)[O-])n2C)nn1C (stereo not shown) [Compound 13D] : MIC is 2

Summary for this compound, `CC(=O)Nc1c(C(=O)O)c(-c2ncc([N+](=O)[O-])n2C)nn1C` : MIC is 1

Summary for this compound, `CC(=O)Nc1c(C#N)c(-c2ncc([N+](=O)[O-])n2C)nn1C` : MIC is 0.03

Summary for this compound, Cn1nc(-c2ncc([N+](=O)[O-])n2C)c(C(=O)O)c1N [Compound 10A] : MIC is 0.5
